- System: SH-SY5Y
- testSummary: Cytotoxicity against human SH-SY5Y cells assessed as reduction in cell viability incubated for 72 hrs by MTT assay
- Format: functional, cell-based
Mark each entry Condition met if its IC50 sits below 4 µM, and Condition not met for all others.

> print(dat)
                                 smilestext  assaysystem      assignedclass
1  CCC(=O)Nc1nc2ccc(-c3ccc4ncn(CCCN5CCOCC5)c(=O)c4c3)cc2[nH]1      SH-SY5Y      Condition met
2  CCN(CC)C(=O)Nc1nc2ccc(-c3ccc4ncn(CCN5CCOCC5)c(=O)c4c3)cc2[nH]1      SH-SY5Y      Condition met
3  O=C(Nc1nc2ccc(-c3ccc4ncn(CCN5CCOCC5)c(=O)c4c3)cc2[nH]1)N1CCOCC1      SH-SY5Y  Condition not met
4  CCS(=O)(=O)Nc1nc2ccc(-c3ccc4ncn(CC(=O)N5CCOCC5)c(=O)c4c3)cc2[nH]1      SH-SY5Y  Condition not met
5  CCC(=O)Nc1nc2ccc(-c3ccc4nc(CN5CCN(C(=O)CC)CC5)n(C)c(=O)c4c3)cc2[nH]1      SH-SY5Y  Condition not met
6  O=C(Nc1nc2ccc(-c3ccc4ncn(CCN5CCOCC5)c(=O)c4c3)cc2[nH]1)C1CCCCC1      SH-SY5Y  Condition not met

Exam item: # TODO verify IC50 < 4 µM strictly for this compound: CCC(=O)Nc1nc2ccc(-c3ccc4nc(CN5CCOCC5)n(C)c(=O)c4c3)cc2[nH]1
Marked response: Condition met

Exam item: Take the compound CCC(=O)Nc1nc2ccc(-c3ccc4ncn(CC(=O)N5CCOCC5)c(=O)c4c3)cc2[nH]1 and say whether its IC50 is less than 4 µM.
Marked response: Condition not met

Exam item: API: query returns whether the compound falls strictly under 4 µM in IC50. Query: CCCCn1cnc2ccc(-c3ccc4nc(NC(=O)CC)[nH]c4c3)cc2c1=O
Marked response: Condition not met

Exam item: Is the reported IC50 for CCS(=O)(=O)Nc1nc2ccc(-c3ccc4ncn(C)c(=O)c4c3)cc2[nH]1 strictly below 4 µM?
Marked response: Condition not met

Exam item: Hello, is IC50 of the following compound strictly smaller than 4 µM? CCC(=O)Nc1nc2ccc(-c3ccc4ncn(CCc5c[nH]c6ccccc56)c(=O)c4c3)cc2[nH]1
Marked response: Condition met

Exam item: Is 4 µM strictly greater than the compound's reported IC50? compound: CCC(=O)Nc1nc2ccc(-c3ccc4ncn(CCN5CCOCC5)c(=O)c4c3)cc2[nH]1
Marked response: Condition met

Exam item: Consider the compound COC(=O)Nc1nc2ccc(-c3ccc4ncn(CCN5CCOCC5)c(=O)c4c3)cc2[nH]1 . Is its IC50 strictly less than 4 µM?
Marked response: Condition not met

Exam item: Please determine if CCC(=O)Nc1nc2ccc(-c3ccc4ncn(C)c(=O)c4c3)cc2[nH]1 is below 4 µM in terms of IC50.
Marked response: Condition not met

###

- testSummary: Solubility of compound in water
- Assay type: physicochemical
- measurementSetup: buffer
quantityMeasured: solubility

> print(dat)
                                 smilestext   result
1  CN(C)C(=O)Nc1nc2ccc(-c3ccc4ncn(CCN5CCOCC5)c(=O)c4c3)cc2[nH]1  Soluble
2  COC(=O)Nc1nc2ccc(-c3ccc4ncn(CCN5CCOCC5)c(=O)c4c3)cc2[nH]1  Soluble
3  CCN(CC)C(=O)Nc1nc2ccc(-c3ccc4ncn(CCN5CCOCC5)c(=O)c4c3)cc2[nH]1  Soluble

###

- assaySystem: Aurora kinase A (Homo sapiens)
- Sequence (O14965 whole entry): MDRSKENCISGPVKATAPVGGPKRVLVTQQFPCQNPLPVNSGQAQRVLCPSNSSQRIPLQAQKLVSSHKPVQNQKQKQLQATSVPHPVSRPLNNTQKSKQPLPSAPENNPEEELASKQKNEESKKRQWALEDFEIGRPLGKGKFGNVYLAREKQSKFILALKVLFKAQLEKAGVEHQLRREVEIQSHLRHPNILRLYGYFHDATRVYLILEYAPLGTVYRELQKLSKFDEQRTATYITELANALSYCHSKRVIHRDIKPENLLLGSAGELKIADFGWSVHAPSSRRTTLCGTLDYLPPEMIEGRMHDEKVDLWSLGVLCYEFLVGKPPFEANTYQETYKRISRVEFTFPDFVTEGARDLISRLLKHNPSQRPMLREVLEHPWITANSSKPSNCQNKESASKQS
- testSummary: Inhibition of Aurora A (unknown origin) incubated for 1 hrs by HTRF assay
quantityMeasured: IC50 (nM)
Give a bare numeral; the unit nM is implied.

Exam item: Fill in the blank: the reported IC50 of CCC(=O)Nc1nc2ccc(-c3ccc4ncn(CCN5CCOCC5)c(=O)c4c3)cc2[nH]1 is ____.
Marked response: 21.9

###

- System: MDA-MB-231
- testSummary: Cytotoxicity against human MDA-MB-231 cells assessed as reduction in cell viability incubated for 72 hrs by MTT assay
- Format: functional, cell-based
- measurementSetup: MDA-MB-231, 72 h
quantityMeasured: IC50 (µM)
Could you give me the number in µM? Just the number is fine.

> print(dat)
                                 smilestext  assaysystem  quantitymeasured  numericresult
1  O=C(Nc1nc2ccc(-c3ccc4ncn(CCN5CCOCC5)c(=O)c4c3)cc2[nH]1)C1CCCCC1   MDA-MB-231              IC50           10.2

Exam item: Name the recorded IC50 for CCC(=O)Nc1nc2ccc(-c3ccc4ncn(CCN5CCCCC5)c(=O)c4c3)cc2[nH]1 .
Marked response: 1.23

###

- assaySystem: Aurora kinase B (Homo sapiens)
- Sequence (Q96GD4 whole entry): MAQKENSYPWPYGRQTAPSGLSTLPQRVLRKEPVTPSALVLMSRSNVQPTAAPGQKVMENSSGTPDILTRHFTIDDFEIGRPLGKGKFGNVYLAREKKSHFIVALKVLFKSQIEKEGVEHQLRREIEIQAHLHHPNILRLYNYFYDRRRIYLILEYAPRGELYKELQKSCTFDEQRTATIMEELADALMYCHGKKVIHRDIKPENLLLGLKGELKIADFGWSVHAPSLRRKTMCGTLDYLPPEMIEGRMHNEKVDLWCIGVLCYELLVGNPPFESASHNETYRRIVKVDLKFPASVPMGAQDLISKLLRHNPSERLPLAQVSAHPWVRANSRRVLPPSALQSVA
quantityMeasured: pIC50
Reminder that pIC50 is minus the log10 of a molar concentration.

Exam item: Value lookup for pIC50; key = CCC(=O)Nc1nc2ccc(-c3ccc4ncn(CCN5CCOCC5)c(=O)c4c3)cc2[nH]1
Marked response: 6.56

###

- Tested on: MDA-MB-231
- testSummary: Cytotoxicity against human MDA-MB-231 cells assessed as reduction in cell viability incubated for 72 hrs by MTT assay
- Assay type: functional, cell-based
- measurementSetup: MDA-MB-231, 72 h
// assign Yes if IC50 falls strictly below 1000 nM, else No (ties count as No)

> print(dat)
                                 smilestext  assignedclass
1  CCS(=O)(=O)Nc1nc2ccc(-c3ccc4ncn(CCN5CCOCC5)c(=O)c4c3)cc2[nH]1             No
2  CCCCC(=O)Nc1nc2ccc(-c3ccc4ncn(CCN5CCOCC5)c(=O)c4c3)cc2[nH]1             No
3  Cc1cc(Nc2cc(N3CCN(C)CC3)nc(/C=C/c3ccccc3)n2)n[nH]1            Yes
4  CN(C)C(=O)Nc1nc2ccc(-c3ccc4ncn(CCN5CCOCC5)c(=O)c4c3)cc2[nH]1             No
5  O=C(Nc1nc2ccc(-c3ccc4ncn(CCN5CCOCC5)c(=O)c4c3)cc2[nH]1)c1ccccc1             No
6  COC(=O)Nc1nc2ccc(-c3ccc4ncn(CCN5CCOCC5)c(=O)c4c3)cc2[nH]1             No

Exam item: Hi there! Is IC50 for CCS(=O)(=O)Nc1nc2ccc(-c3ccc4ncn(C)c(=O)c4c3)cc2[nH]1 below 1000 nM, do you know?
Marked response: No

Exam item: hey, is IC50 for CCC(=O)Nc1nc2ccc(-c3ccc4ncn(CC(=O)N5CCOCC5)c(=O)c4c3)cc2[nH]1 lower than 1000 nM or not?
Marked response: No

Exam item: hey, is IC50 for CCC(=O)Nc1nc2ccc(-c3ccc4nc(CN5CCN(C(=O)CC)CC5)n(C)c(=O)c4c3)cc2[nH]1 lower than 1000 nM or not?
Marked response: No

Exam item: Dear colleague, could you confirm whether IC50 of CCC(=O)Nc1nc2ccc(-c3ccc4nc(CN5CCOCC5)n(C)c(=O)c4c3)cc2[nH]1 falls below 1000 nM? Thanks.
Marked response: Yes

Exam item: For CCC(=O)Nc1nc2ccc(-c3ccc4ncn(CCN5CCOCC5)c(=O)c4c3)cc2[nH]1 , is the recorded IC50 below the cut-off of 1000 nM?
Marked response: Yes

Exam item: # TODO verify IC50 < 1000 nM strictly for this molecule: O=C(Nc1nc2ccc(-c3ccc4ncn(CCN5CCOCC5)c(=O)c4c3)cc2[nH]1)C1CC1
Marked response: No

Exam item: Consider the molecule CCN(CC)C(=O)Nc1nc2ccc(-c3ccc4ncn(CCN5CCOCC5)c(=O)c4c3)cc2[nH]1 . Is its IC50 strictly less than 1000 nM?
Marked response: No

###

IC50 overview
- System: SH-SY5Y
- testSummary: Cytotoxicity against human SH-SY5Y cells assessed as reduction in cell viability incubated for 72 hrs by MTT assay
- Assay type: functional, cell-based
Report only the number, with the unit µM understood.

// worked examples, IC50 included
> print(dat)
                                 smilestext  assaysystem  numericresult
1  CCC(=O)Nc1nc2ccc(-c3ccc4ncn(CCN5CCCCC5)c(=O)c4c3)cc2[nH]1      SH-SY5Y           4.02
2  O=C(Nc1nc2ccc(-c3ccc4ncn(CCN5CCOCC5)c(=O)c4c3)cc2[nH]1)C1CC1      SH-SY5Y           7.33
3  CN(C)C(=O)Nc1nc2ccc(-c3ccc4ncn(CCN5CCOCC5)c(=O)c4c3)cc2[nH]1      SH-SY5Y           3.92

Here is the next item to consider.
Exam item: IC50 lookup needed for CCCCC(=O)Nc1nc2ccc(-c3ccc4ncn(CCN5CCOCC5)c(=O)c4c3)cc2[nH]1 , thanks.
Marked response: 4.19
